Sourced from ChEMBL document CHEMBL4261490

TEST_NAME: Selectivity index, ratio of ED50 for human HaCaT cells to MIC for Pseudomonas aeruginosa PAO1 ATCC 15692
Assay type: toxicity
MEASUREMENT_CONDITIONS: read-out: Selectivity Index
Square brackets hold non-standard residues; d marks the D form. Peptide text beside a SMILES is read from it. Gly(N-(CH2)6NH2) = NCCCCCCNCC(=O)O; Nspe = C[C@H](NCC(=O)O)c1ccccc1; NhArg = N=C(N)NCCCCNCC(=O)O; Nlys = NCCCCNCC(=O)O
I'd appreciate it if you could supply selectivity ratio values for the items below.
One number for each entry.

C[C@@H](c1ccccc1)N(CC(N)=O)C(=O)CN(C(=O)CN(CCCCNC(=N)N)C(=O)CN(C(=O)CN(C(=O)CN(CCCCNC(=N)N)C(=O)CN(C(=O)CN(C(=O)CN(CCCCN)C(=O)CN(C(=O)CN(C(=O)CNCCCCN)[C@@H](C)c1ccccc1)[C@@H](C)c1ccccc1)[C@@H](C)c1ccccc1)[C@@H](C)c1ccccc1)[C@@H](C)c1ccccc1)[C@@H](C)c1ccccc1)[C@@H](C)c1ccccc1 (H-[Nlys][Nspe][Nspe][Nlys][Nspe][Nspe][NhArg][Nspe][Nspe][NhArg][Nspe][Nspe]-NH2)    3

What selectivity ratio value was documented for this compound, C[C@@H](c1ccccc1)N(CC(N)=O)C(=O)CN(C(=O)CN(CCCCCCN)C(=O)CN(C(=O)CN(C(=O)CN(CCCCCCN)C(=O)CN(C(=O)CN(C(=O)CNCCCCCCN)[C@@H](C)c1ccccc1)[C@@H](C)c1ccccc1)[C@@H](C)c1ccccc1)[C@@H](C)c1ccccc1)[C@@H](C)c1ccccc1 (H-[Gly(N-(CH2)6NH2)][Nspe][Nspe][Gly(N-(CH2)6NH2)][Nspe][Nspe][Gly(N-(CH2)6NH2)][Nspe][Nspe]-NH2) ?
1

###

I'd appreciate it if you could supply CC50 at 24 h values for the items below.
TEST_NAME: Cytotoxicity against human HaCaT cells assessed as reduction in cell viability pretreated for 1 hr followed by DMEM addition measured after 24 hrs by alamar blue assay
Type: cell-based
MEASUREMENT_CONDITIONS: read-out: ED50
Square brackets hold non-standard residues; d marks the D form. Peptide text beside a SMILES is read from it. Gly(N-(CH2)6NH2) = NCCCCCCNCC(=O)O; Gly(N-2-aminoethyl) = NCCNCC(=O)O; Nspe = C[C@H](NCC(=O)O)c1ccccc1; NhArg = N=C(N)NCCCCNCC(=O)O; Nphe = O=C(O)CNCc1ccccc1; Nlys = NCCCCNCC(=O)O

Solved entries:
CC(c1ccccc1)N(CC(=O)N(CCN)CC(=O)N(CC(=O)N(CC(=O)N(CCN)CC(=O)N(CC(=O)N(CC(N)=O)[C@@H](C)c1ccccc1)[C@@H](C)c1ccccc1)C(C)c1ccccc1)[C@@H](C)c1ccccc1)C(=O)CN(C(=O)CNCCN)C(C)c1ccccc1 (single isomer, unassigned)    > 100 µM
CCCCCNCC(=O)N(CC(=O)N(CC(=O)N(CCCCN)CC(=O)N(CC(=O)N(CC(=O)N(CCCCN)CC(=O)N(CC(=O)N(CC(=O)N(CCCCN)CC(=O)N(CC(=O)N(CC(N)=O)[C@@H](C)c1ccccc1)[C@@H](C)c1ccccc1)C(C)c1ccccc1)[C@@H](C)c1ccccc1)[C@@H](C)c1ccccc1)[C@@H](C)c1ccccc1)C(C)c1ccccc1)[C@@H](C)c1ccccc1 (single isomer, unassigned)    12 µM
NCCCCNCC(=O)N(CC(=O)N(CC(=O)N(CCCCN)CC(=O)N(CC(=O)N(CC(=O)N(CCCCN)CC(=O)N(CC(=O)N(CC(N)=O)Cc1ccccc1)Cc1ccccc1)Cc1ccccc1)Cc1ccccc1)Cc1ccccc1)Cc1ccccc1    > 100 µM
NCCCCNCC(=O)N(CC(=O)N(CC(=O)N(CCCCN)CC(=O)N(CC(=O)N(CC(N)=O)Cc1ccccc1)Cc1ccccc1)Cc1ccccc1)Cc1ccccc1 (H-[Nlys][Nphe][Nphe][Nlys][Nphe][Nphe]-NH2)    > 100 µM
N=C(N)NCCCCNCC(=O)N(CC(=O)N(CC(=O)N(CCCCNC(=N)N)CC(=O)N(CC(=O)N(CC(=O)N(CCCCNC(=N)N)CC(=O)N(CC(=O)N(CC(=O)N(CCCCNC(=N)N)CC(=O)N(CC(=O)N(CC(N)=O)Cc1ccccc1)Cc1ccccc1)Cc1ccccc1)Cc1ccccc1)Cc1ccccc1)Cc1ccccc1)Cc1ccccc1)Cc1ccccc1 (H-[NhArg][Nphe][Nphe][NhArg][Nphe][Nphe][NhArg][Nphe][Nphe][NhArg][Nphe][Nphe]-NH2)    > 100 µM

Hi, could you look up CC50 at 24 h for each item in my list?
1. C[C@@H](c1ccccc1)N(CC(N)=O)C(=O)CN(C(=O)CN(CCCCNC(=N)N)C(=O)CN(C(=O)CN(C(=O)CN(CCCCNC(=N)N)C(=O)CN(C(=O)CN(C(=O)CN(CCCCN)C(=O)CN(C(=O)CN(C(=O)CNCCCCN)[C@@H](C)c1ccccc1)[C@@H](C)c1ccccc1)[C@@H](C)c1ccccc1)[C@@H](C)c1ccccc1)[C@@H](C)c1ccccc1)[C@@H](C)c1ccccc1)[C@@H](C)c1ccccc1 (H-[Nlys][Nspe][Nspe][Nlys][Nspe][Nspe][NhArg][Nspe][Nspe][NhArg][Nspe][Nspe]-NH2)
2. CCCCCN(CC(=O)N(CC(=O)N(CC(=O)N(CCCCN)CC(=O)N(CC(=O)N(CC(N)=O)[C@@H](C)c1ccccc1)[C@@H](C)c1ccccc1)C(C)c1ccccc1)[C@@H](C)c1ccccc1)C(=O)CN(C(=O)CN(C(=O)CN(CCCCN)C(=O)CN(C(=O)CN(C(=O)CNCCCCN)[C@@H](C)c1ccccc1)C(C)c1ccccc1)[C@@H](C)c1ccccc1)C(C)c1ccccc1 (single isomer, unassigned)
3. NCCCCCCNCC(=O)N(CC(=O)N(CC(=O)N(CCCCCCN)CC(=O)N(CC(=O)N(CC(=O)N(CCCCCCN)CC(=O)N(CC(=O)N(CC(N)=O)Cc1ccccc1)Cc1ccccc1)Cc1ccccc1)Cc1ccccc1)Cc1ccccc1)Cc1ccccc1 (H-[Gly(N-(CH2)6NH2)][Nphe][Nphe][Gly(N-(CH2)6NH2)][Nphe][Nphe][Gly(N-(CH2)6NH2)][Nphe][Nphe]-NH2)
4. NCCNCC(=O)N(CC(=O)N(CC(=O)N(CCN)CC(=O)N(CC(=O)N(CC(=O)N(CCN)CC(=O)N(CC(=O)N(CC(=O)N(CCN)CC(=O)N(CC(=O)N(CC(N)=O)Cc1ccccc1)Cc1ccccc1)Cc1ccccc1)Cc1ccccc1)Cc1ccccc1)Cc1ccccc1)Cc1ccccc1)Cc1ccccc1 (H-[Gly(N-2-aminoethyl)][Nphe][Nphe][Gly(N-2-aminoethyl)][Nphe][Nphe][Gly(N-2-aminoethyl)][Nphe][Nphe][Gly(N-2-aminoethyl)][Nphe][Nphe]-NH2)
5. CC(c1ccccc1)N(CC(=O)N(CCCCN)CC(=O)N(CC(=O)N(CC(=O)N(CCCCN)CC(=O)N(CC(=O)N(CC(N)=O)[C@@H](C)c1ccccc1)Cc1ccc(F)cc1)C(C)c1ccccc1)Cc1ccc(F)cc1)C(=O)CN(Cc1ccc(F)cc1)C(=O)CNCCCCN (single isomer, unassigned)

1: > 100 µM; 2: 20 µM; 3: > 100 µM; 4: > 100 µM; 5: 52 µM

Hi, could you look up CC50 at 24 h for each item in my list?
1. C[C@@H](c1ccccc1)N(CC(N)=O)C(=O)CN(C(=O)CN(CCCCCCN)C(=O)CN(C(=O)CN(C(=O)CNCCCCCCN)[C@@H](C)c1ccccc1)[C@@H](C)c1ccccc1)[C@@H](C)c1ccccc1
2. C[C@@H](c1ccccc1)N(CC(N)=O)C(=O)CN(C(=O)CN(CCCCCCN)C(=O)CN(C(=O)CN(C(=O)CN(CCCCCCN)C(=O)CN(C(=O)CN(C(=O)CNCCCCCCN)[C@@H](C)c1ccccc1)[C@@H](C)c1ccccc1)[C@@H](C)c1ccccc1)[C@@H](C)c1ccccc1)[C@@H](C)c1ccccc1 (H-[Gly(N-(CH2)6NH2)][Nspe][Nspe][Gly(N-(CH2)6NH2)][Nspe][Nspe][Gly(N-(CH2)6NH2)][Nspe][Nspe]-NH2)

1: > 100 µM; 2: > 100 µM

###

TEST_NAME: Selectivity index, ratio of ED50 for human HepG2 cells to MIC for Staphylococcus aureus 3R7089 strain Oxford/ATCC 9144
Format: toxicity
MEASUREMENT_CONDITIONS: read-out: Selectivity Index
Square brackets hold non-standard residues; d marks the D form. Peptide text beside a SMILES is read from it. Gly(N-(CH2)6NH2) = NCCCCCCNCC(=O)O; Nspe = C[C@H](NCC(=O)O)c1ccccc1; NhArg = N=C(N)NCCCCNCC(=O)O; NPentylGly = CCCCCNCC(=O)O
The label TRUE is reserved for selectivity ratio strictly under 10; FALSE covers values equal to or above it.

NCCCCNCC(=O)N(CC(=O)N(CC(=O)N(CCCCN)CC(=O)N(CC(=O)N(CC(=O)N(CCCCN)CC(=O)N(CC(=O)N(CC(=O)N(CCCCN)CC(=O)N(CC(=O)N(CC(N)=O)Cc1cccc(F)c1)Cc1cccc(F)c1)Cc1cccc(F)c1)Cc1cccc(F)c1)Cc1cccc(F)c1)Cc1cccc(F)c1)Cc1cccc(F)c1)Cc1cccc(F)c1    TRUE

Take the compound CCCCCNCC(=O)N(CC(=O)N(CC(=O)N(CCCCNC(=N)N)CC(=O)N(CC(=O)N(CC(=O)N(CCCCC)CC(=O)N(CC(=O)N(CC(=O)N(CCCCNC(=N)N)CC(=O)N(CC(=O)N(CC(N)=O)[C@@H](C)c1ccccc1)[C@@H](C)c1ccccc1)[C@@H](C)c1ccccc1)[C@@H](C)c1ccccc1)[C@@H](C)c1ccccc1)[C@@H](C)c1ccccc1)[C@@H](C)c1ccccc1)[C@@H](C)c1ccccc1 (H-[NPentylGly][Nspe][Nspe][NhArg][Nspe][Nspe][NPentylGly][Nspe][Nspe][NhArg][Nspe][Nspe]-NH2) and say whether its selectivity ratio is less than 10.
TRUE

Thanks! And C[C@@H](c1ccccc1)N(CC(N)=O)C(=O)CN(C(=O)CN(CCCCCCN)C(=O)CN(C(=O)CN(C(=O)CN(CCCCCCN)C(=O)CN(C(=O)CN(C(=O)CNCCCCCCN)[C@@H](C)c1ccccc1)[C@@H](C)c1ccccc1)[C@@H](C)c1ccccc1)[C@@H](C)c1ccccc1)[C@@H](C)c1ccccc1 (H-[Gly(N-(CH2)6NH2)][Nspe][Nspe][Gly(N-(CH2)6NH2)][Nspe][Nspe][Gly(N-(CH2)6NH2)][Nspe][Nspe]-NH2) ?
FALSE
